test system: mRNA; assay: mRNA encapsulation (modified Quant-iT RiboGreen assay); format: physicochemical; conditions: RiboGreen, without vs with Triton X-100
Starred links: 1 amine or outer side, 2 acyl side, 3 side chain; linkers in the order of their positions; H or OH if unused. Non-standard residues stand in square brackets, D forms with d. Residues, ends and D or L forms follow the SMILES beside them. Gly(N-(3-decanoyloxypropyl)) = CCCCCCCCCC(=O)OCCCNCC(=O)O; Gly(N-(CH2)3O-octanoyl) = CCCCCCCC(=O)OCCCNCC(=O)O; N(3-imidazol-1-ylpropyl)Gly = O=C(O)CNCCCn1ccnc1; X1 = CCCCC(CC)CSSCCN(CC(=O)[*:2])[*:1]; N(CH(CH2OH)2)Gly = O=C(O)CNC(CO)CO; N(octyl)Gly = CCCCCCCCNCC(=O)O; NHexGly = CCCCCCNCC(=O)O

molecule: CCCCCCCCCCCC(=O)OCCCN(CC(=O)N(CC(=O)N(CC(=O)N(CCCn1ccnc1)CC(=O)N(CC(=O)N(CC(=O)N(CCCOC(=O)CCCCCCCCCCC)CC(=O)N(CC(N)=O)CC(CC)CCCC)Cc1ccco1)CC(CC)CCCC)CC(CC)CCCC)Cc1ccco1)C(=O)CN(C=O)CC(CC)CCCC (stereo not drawn)
mean percent encapsulation of RNA (%): 68.4
//
molecule: CCCCCCCCCC(=O)OCCCN(CC(=O)N(CCCOC(=O)CCCCCCCCC)CC(=O)N(CCCCCC)CC(=O)N(CCCOC(=O)CCCCCCCCC)CC(=O)N(CCCOC(=O)CCCCCCCCC)CC(=O)N(CCCCCC)CC(N)=O)C(=O)CNCCCn1ccnc1 [Compound 109] (H-[N(3-imidazol-1-ylpropyl)Gly][Gly(N-(3-decanoyloxypropyl))][Gly(N-(3-decanoyloxypropyl))][NHexGly][Gly(N-(3-decanoyloxypropyl))][Gly(N-(3-decanoyloxypropyl))][NHexGly]-NH2)
mean percent encapsulation of RNA (%): 69.5
//
molecule: CCCCCCCCN(CC(=O)N(CCCOC(=O)CCCCCCC)CC(=O)N(CCSSCC(CC)CCCC)CC(=O)N(CCCCCCCC)CC(=O)N(CCCOC(=O)CCCCCCC)CC(=O)N(CCSSCC(CC)CCCC)CC(N)=O)C(=O)CNC(CO)CO (stereo not drawn) [Compound 127] (H-[N(CH(CH2OH)2)Gly][N(octyl)Gly][Gly(N-(CH2)3O-octanoyl)][X1][N(octyl)Gly][Gly(N-(CH2)3O-octanoyl)][X1]-NH2)
mean percent encapsulation of RNA (%): 84.2
